Source listed as patent US20250382355A1.

Tgt: Biotinylated CoV2 Spike ECD PreS-AVI protein (SARS-CoV-2, UniProt P0DTC2 14-1208)
Test Summary: Octet binning; competitor Std-B
If the reported binning response equals or exceeds 0.3, assign yes (1). If not, assign no (0).

{"Binder": "5D7 VHH-Fc (Fc fusion) QVQLVESGGGLVQAGGSLRLSCAASGRTGSRYIMGWFRQAPGKEREFVAAINWRGDSTYYADSVKGRFTIARDNAKNTAYLQMNSLKPEDTAVYYCVADRGESYYYTRSTEYTYWGQGTQVTVSS", "Qualitative Label": "no (0)"}
{"Binder": "9B2 VHH-Fc (Fc fusion) QVQLVESGGGLVQPGGSLRLSCAASGFTLDNYAIGWFRQAPGKEREGVSCISSSDGDTQYADSVKGRFTISRDNAKNTVYLQMNSLKPEDTAVYYCAVEKVYARSWFFHLCSELDFGSWGQGTQVTVSS", "Qualitative Label": "yes (1)"}
{"Binder": "11F8 VHH-Fc (Fc fusion) QVQLVESGGGLVQAGGSLRLSCAASGRTVGYYAVGWFRQAPGKERDFVAAISWSGRNTNYADSVTGRFTIFRDNAKNTVDLQMNSLKPEDTAVYYCAADYWNYGSGSEVPNNYDTWGQGTQVTVSS", "Qualitative Label": "no (0)"}
{"Binder": "8E9 VHH-Fc (Fc fusion) QVQLVESGGGLVEAGGSLRLSCVASGSSSSINAMGWYRQAPGKQRELVASISHDGETKYANSVKGRFTISRGNAKNTIYLQMNSLKPEDTAVYYCVGDVAWVVVAGEYDYWGQGTQVTVSS", "Qualitative Label": "yes (1)"}
{"Binder": "13C8 VHH-Fc (Fc fusion) QVQLVESGGGLVQAGGSLRLSCAASGRTVNKYMTGWFRQTPGKEREFVASIDWSSTTTHYANSVKGRFTISRDKVKNTVYLQMNGLKPEDTAVYYCAAHQDSSYGYTILPIDYDSWGQGTQVTVSS", "Qualitative Label": "yes (1)"}
{"Binder": "15H7 VHH-Fc (Fc fusion) QVQLVESGGRLVQAGGSLRLSCAAPGRTFRNLTLGWFRQAPGKEREFVASTSWPDDEMTYYTDSVKGRFTISRDNAKNTVYLQMNSLKPEDTAVYYCAAASWSGRSTLSYDYDYWGQGTQVTVST", "Qualitative Label": "yes (1)"}
{"Binder": "1E4 VHH-Fc (Fc fusion) QVLLVESGGGLVQAGGLLRLACSASGRTFTENVMGWFRQAPGKEREFVAAINWNTGSTYYSDSRKGRFTISKDNAKNTMFLQINNLKPEDTAVYYCGGTSSSYYYIGEFIPDYWGQGTQVTVSS", "Qualitative Label": "no (0)"}
{"Binder": "3D4 VHH-Fc (Fc fusion) QVQLVESGGGLVQPGGSLRLSCAASGFTLDLNSIGWFRQAPGKEREGVSCISPSGSRMHYADSVKGRFTISRDNAKNTVYLQMNSLKPEDTAVYYCATGSPSYHYCSMYGLEYDSWGQGTQVTVPS", "Qualitative Label": "yes (1)"}

input: Given the entry 10B8 VHH-Fc (Fc fusion) QVQLVESGGGLVQPGGSLRLSCAASGITLDYYAIAWFRQAPGKEREGVSCFCSSDGDIRYADSVKGRFTISRDNAKNTVYLQMNSLKPEDTAVYYCATERVYSSTWFFHRYSELDFGSWGRGTQVTVSS , answer whether its binning response meets or surpasses 0.3.
output: yes (1)

input: Quick check: does 19E10 VHH-Fc (Fc fusion) QVQLVESGGGLVQPGGSLRLSCVASGSTISINSMGWYRQAPGKAREMVATITNDGPIKYADPVKGRFTISRDNPKNTVYLQMNSLKPEDTAVYYCVADRAYWLAGEWEYWGQGTQVTVSS have binning response greater than or equal to 0.3?
output: no (0)

input: Item 19C10 VHH-Fc (Fc fusion) QVQLVESGGGLVQPGGSLRLSCAASGFTLDLNSIGWFRQAPGKEREGVSCISPSASSTHYADSVKGRFTISRDNAKNTVYLQMNSLKPEDTAVYYCATGTPSYHYCSMYGLEYDDWGQGTQVTVSS with binning response of 0.3 or above?
output: yes (1)

input: Could you please find out whether 5A6 VHH-Fc (Fc fusion) QVQLVESGGGLAQAGGSLRLSCATSGLTFSMSAMGWFRQAPGNEREFVGVINWNGGSSRYADSVRGRFTISRDNAKNTVYLQMNSLKPEDTGVYYCAADALNIGTGEVNPRLYDYWGQGTQVMVSS has binning response that meets 0.3 or exceeds it?
output: yes (1)

input: Determine whether measured binning response meets or exceeds 0.3 for 1A11 VHH-Fc (Fc fusion) QVQLVESGGGLVQAGGSLRLSCEVSGSIYSINSMGWYRQAPGKQRELVAGIVSDGRINYADSVKGRFTISRAKNTVYLQMNSLKPEDTAVYYCAADRAFVYAGDYDYLGQGTQVTVSS
output: yes (1)
